- condition.summary: plasma; Post preparative stability 24 h at autosampler; 900.00 ng/mL (HQC)
observation.type: %Accuracy

Please review the following examples before continuing.
| compound | %Accuracy |
| --- | --- |
| C=C1CC[C@@H]2[C@](C)(CO)[C@H](O)CC[C@@]2(C)[C@@H]1CCC1=CCOC1=O [AP6, 14-deoxyandrographolide] | 101.27% |
| C=C1CC[C@@H]2[C@](C)(CO)[C@H](O)CC[C@@]2(C)[C@@H]1C/C=C1/C(=O)OC[C@H]1O [AP1, andrographolide] | 99.52% |
| C=C1CC[C@@H]2[C@](C)(CO)[C@H](O)CC[C@@]2(C)[C@@H]1/C=C/C1=CCOC1=O [AP3, 14-deoxy-11, 12-didehydroandrographolide] | 100.12% |

// sample C=C1CC[C@@H]2[C@](C)(CO[C@@H]3O[C@H](CO)[C@@H](O)[C@H](O)[C@H]3O)CCC[C@@]2(C)[C@@H]1CCC1=CCOC1=O [AP4, neoandrographolide] , its %Accuracy was 98.43%

* * *

Can you tell me Measured concentration for the items I'm about to list?
- condition.summary: plasma; Freeze–thaw stability 5 cycles; 2.50 ng/mL (LQC)
Show the value, then the unit it is measured in.

Illustrative cases are given below, each with its answer.
| molecule | Measured concentration |
| --- | --- |
| C=C1CC[C@@H]2[C@](C)(CO)[C@H](O)CC[C@@]2(C)[C@@H]1C/C=C1/C(=O)OC[C@H]1O [AP1, andrographolide] | 2.45 ± 0.06 ng/mL |
| C=C1CC[C@@H]2[C@](C)(CO[C@@H]3O[C@H](CO)[C@@H](O)[C@H](O)[C@H]3O)CCC[C@@]2(C)[C@@H]1CCC1=CCOC1=O [AP4, neoandrographolide] | 2.49 ± 0.14 ng/mL |
| C=C1CC[C@@H]2[C@](C)(CO)[C@H](O)CC[C@@]2(C)[C@@H]1CCC1=CCOC1=O [AP6, 14-deoxyandrographolide] | 2.42 ± 0.04 ng/mL |

Next molecule, Measured concentration to be filled in.
Lookup result for C=C1CC[C@@H]2[C@](C)(CO)[C@H](O)CC[C@@]2(C)[C@@H]1/C=C/C1=CCOC1=O [AP3, 14-deoxy-11, 12-didehydroandrographolide] ; measured Measured concentration: 2.56 ± 0.21 ng/mL

* * *

- assay: Stability in urine under different storage conditions
- Type: physicochemical, human
- condition.summary: Post preparative stability 24 h at autosampler, 2.50 ng/mL (LQC)
observation.type: Measured concentration (ng/mL)
Answers are plain numbers, in ng/mL.

| molecule | Measured concentration / ng/mL |
| --- | --- |
| C=C1CC[C@@H]2[C@](C)(CO[C@@H]3O[C@H](CO)[C@@H](O)[C@H](O)[C@H]3O)CCC[C@@]2(C)[C@@H]1CCC1=CCOC1=O [AP4, neoandrographolide] | 2.40 |

Hey, quick one: what's Measured concentration for each of these?
1. C=C1CC[C@@H]2[C@](C)(CO)[C@H](O)CC[C@@]2(C)[C@@H]1C/C=C1/C(=O)OC[C@H]1O [AP1, andrographolide]
2. C=C1CC[C@@H]2[C@](C)(CO)[C@H](O)CC[C@@]2(C)[C@@H]1CCC1=CCOC1=O [AP6, 14-deoxyandrographolide]
3. C=C1CC[C@@H]2[C@](C)(CO)[C@H](O)CC[C@@]2(C)[C@@H]1/C=C/C1=CCOC1=O [AP3, 14-deoxy-11, 12-didehydroandrographolide]

A.
1: 2.36; 2: 2.41; 3: 2.34
